Target: CETP (Homo sapiens)
Construct: CETP is obtained in partially purified form from human plasma by differential centrifugation and column chromatography and used for the test; from tissue; host or cells: human plasma
Sequence (P11597 18-493): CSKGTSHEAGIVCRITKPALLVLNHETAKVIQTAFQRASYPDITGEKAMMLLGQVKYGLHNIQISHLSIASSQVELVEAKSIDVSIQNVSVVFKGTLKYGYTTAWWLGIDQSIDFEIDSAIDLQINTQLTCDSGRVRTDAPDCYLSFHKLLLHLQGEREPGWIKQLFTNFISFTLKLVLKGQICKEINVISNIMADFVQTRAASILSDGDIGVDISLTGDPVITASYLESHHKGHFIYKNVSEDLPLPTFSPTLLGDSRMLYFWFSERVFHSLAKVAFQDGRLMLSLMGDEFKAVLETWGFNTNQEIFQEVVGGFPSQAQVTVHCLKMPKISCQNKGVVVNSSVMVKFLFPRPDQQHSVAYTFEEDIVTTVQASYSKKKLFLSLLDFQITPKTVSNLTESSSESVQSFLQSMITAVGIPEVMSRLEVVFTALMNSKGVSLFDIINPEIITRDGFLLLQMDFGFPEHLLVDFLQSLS
Test: CETP-SPA test
Type: biochemical
Details: transfer of 3H-cholesterol ester from human HDL to biotinylated LDL; 37° C. for 18 h
Would you kindly list log10(IC50) for each of these compounds?
Heads up, the numbers here are log10 of IC50 in nM units.

For CC(C)c1cc2c(c(-c3ccc(F)cc3)c1[C@@H](O)c1ccc(OC(F)(F)F)cc1)[C@@H](O)CC(C)(C)O2 the compound record lists log10(IC50) as 1.71

For CC(C)c1cc2c(c(C3=CCCC3)c1[C@@H](O)c1ccc(C(F)(F)F)cc1)[C@@H](O)CC(C)(C)O2 the compound record lists log10(IC50) as 1.76

For CC(C)c1cc2c(c(C3CCCC3)c1[C@H](F)c1ccc(C(F)(F)F)cc1)[C@@H](O)CC1(CCC1)O2 the compound record lists log10(IC50) as 2.00

For CC(C)(C)c1ccc(C(=O)c2c(C3CCCC3)cc3c(c2-c2ccc(F)cc2)[C@@H](O)CC2(CCC2)O3)cc1 the compound record lists log10(IC50) as 1.58

For CC(C)c1cc2c(c(-c3ccc(F)cc3)c1Cc1ccc(OC(F)(F)F)cc1)[C@@H](O)CC1(CCC1)O2 the compound record lists log10(IC50) as 1.18

For CC(C)c1cc2c(c(C3CCCC3)c1[C@@H](F)c1ccc(C(F)(F)F)cc1)[C@@H](O)CC1(CCC1)O2 the compound record lists log10(IC50) as 1.32

For CC(C)c1cc2c(c(-c3ccc(F)cc3)c1Cc1ccc(C(C)(C)C)cc1)[C@@H](O)CC1(CCC1)O2 the compound record lists log10(IC50) as 0.78

====

Target: CETP (Homo sapiens)
Construct: CETP is obtained in partially purified form from human plasma by differential centrifugation and column chromatography and used for the test; from tissue; host or cells: human plasma
Sequence (P11597 18-493): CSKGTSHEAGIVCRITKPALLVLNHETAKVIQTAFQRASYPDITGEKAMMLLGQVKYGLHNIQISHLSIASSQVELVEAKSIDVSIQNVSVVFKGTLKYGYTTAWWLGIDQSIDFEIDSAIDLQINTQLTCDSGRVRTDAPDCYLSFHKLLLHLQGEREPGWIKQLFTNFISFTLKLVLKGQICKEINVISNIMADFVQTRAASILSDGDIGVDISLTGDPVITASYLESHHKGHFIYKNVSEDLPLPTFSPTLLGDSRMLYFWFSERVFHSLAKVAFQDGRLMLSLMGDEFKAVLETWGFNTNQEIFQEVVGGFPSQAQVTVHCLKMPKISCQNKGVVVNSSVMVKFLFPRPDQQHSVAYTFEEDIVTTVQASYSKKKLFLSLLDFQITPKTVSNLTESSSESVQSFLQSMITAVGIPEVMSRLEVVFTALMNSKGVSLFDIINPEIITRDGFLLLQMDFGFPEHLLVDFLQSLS
Assay: CETP-SPA test
Format: biochemical
Conditions: transfer of 3H-cholesterol ester from human HDL to biotinylated LDL; 37° C. for 18 h
Label Satisfied when IC50 is strictly below 20 nM; at or above that, label Not satisfied.

### Prompt Quick check: does CC(C)c1cc2c(c(-c3ccc(F)cc3)c1[C@H](F)c1ccc(C(F)(F)F)cc1)[C@@H](O)CC1(CC1)O2 [Example 58] have IC50 under 20 nM?
### Response Not satisfied

### Prompt Quick check: does CC(C)c1cc2c(c(C3=CCCCC3)c1C(=O)c1ccc(C(F)(F)F)cc1)[C@@H](O)CC(C)(C)O2 [Example 19] have IC50 under 20 nM?
### Response Not satisfied

### Prompt Quick check: does CC(C)(C)c1ccc([C@@H](O)c2c(C3CCCC3)cc3c(c2-c2ccc(F)cc2)[C@@H](O)CC2(CCC2)O3)cc1 [Example 49] have IC50 under 20 nM?
### Response Not satisfied

### Prompt Quick check: does O=C(c1ccc(OC(F)(F)F)cc1)c1c(C2CCCC2)cc2c(c1-c1ccc(F)cc1)[C@@H](O)CC1(CCC1)O2 [Example 51] have IC50 under 20 nM?
### Response Not satisfied

### Prompt Quick check: does CC(C)(C)c1ccc([C@H](O)c2c(C3CCCC3)cc3c(c2-c2ccc(F)cc2)[C@@H](O)CC2(CCC2)O3)cc1 [Example 48] have IC50 under 20 nM?
### Response Satisfied

### Prompt Quick check: does CC(C)c1cc2c(c(-c3ccc(F)cc3)c1[C@@H](O)c1ccc(C(C)(C)C)cc1)[C@@H](O)CC1(CCC1)O2 [Example 34] have IC50 under 20 nM?
### Response Satisfied

### Prompt Quick check: does CC(C)c1cc2c(c(-c3ccc(F)cc3)c1[C@@H](F)c1ccc(C(F)(F)F)cc1)[C@@H](O)CC1(CCC1)O2 [Example 30] have IC50 under 20 nM?
### Response Satisfied

### Prompt Quick check: does CC(C)c1cc2c(c(-c3ccc(F)cc3)c1C(=O)c1ccc(C(F)(F)F)cc1)[C@@H](O)CC(C)(C)O2 [Example 4] have IC50 under 20 nM?
### Response Not satisfied

### Prompt Quick check: does O[C@@H](c1ccc(C(F)(F)F)cc1)c1c(C2CCCC2)cc2c(c1-c1ccc(F)cc1)[C@@H](O)CC1(CCC1)O2 [Example 45] have IC50 under 20 nM?
### Response Not satisfied

### Prompt Quick check: does CC(C)c1cc2c(c(-c3ccc(F)cc3)c1Cc1ccc(C(F)(F)F)cc1)[C@@H](O)CC1(CCC1)O2 [Example 32] have IC50 under 20 nM?
### Response Satisfied

### Prompt Quick check: does CC(C)c1cc2c(c(-c3ccc(F)cc3)c1[C@@H](O)c1ccc(C(F)(F)F)cc1)[C@@H](O)CC1(CCC1)O2 [Example 28] have IC50 under 20 nM?
### Response Not satisfied
